Test system: Staphylococcus aureus MW2 delta-mecA (mecA-)
Test: normalized GFP fluorescence (growth of mecA- strain) (fraction of control range); higher = more growth of mecA- strain
Details: compound concentration: 150 uM; cefoxitin: subinhibitory; fluorescent label: GFP
// map normalized GFP fluorescence to label using category 1 = under 0.2, category 2 = from 0.2 up to 0.4, category 3 = 0.4 and over

Solved cases (8 shown):
compound="COc1ccc(CC2c3cc(OC)c(OC)cc3CC[N+]2(C)CCC(=O)OCCCCCOC(=O)CC[N+]2(C)CCc3cc(OC)c(OC)cc3C2Cc2ccc(OC)c(OC)c2)cc1OC (configuration not stated)" measuredtarget="Staphylococcus aureus MW2 delta-mecA (mecA-)" cat="category 2"
compound=CCCCCCCCCCCCCCCCCCCCCCO measuredtarget="Staphylococcus aureus MW2 delta-mecA (mecA-)" cat="category 2"
compound=Nc1ccc(S(=O)(=O)Nc2ncccn2)cc1 measuredtarget="Staphylococcus aureus MW2 delta-mecA (mecA-)" cat="category 3"
compound=Cc1nc2n(c(=O)c1CCN1CCC(c3noc4cc(F)ccc34)CC1)CCCC2 measuredtarget="Staphylococcus aureus MW2 delta-mecA (mecA-)" cat="category 3"
compound="C[C@]12CC[C@@H]3c4ccc(O)cc4CC[C@H]3[C@@H]1CCC2=O [Estrone]" measuredtarget="Staphylococcus aureus MW2 delta-mecA (mecA-)" cat="category 1"
compound="NC(=O)OCC(COC(N)=O)c1ccccc1 [Felbamate]" measuredtarget="Staphylococcus aureus MW2 delta-mecA (mecA-)" cat="category 2"
compound=COC1=CC(=O)C[C@@H](C)[C@]12Oc1c(Cl)c(OC)cc(OC)c1C2=O measuredtarget="Staphylococcus aureus MW2 delta-mecA (mecA-)" cat="category 2"
compound="OC(CCN1CCCCC1)(c1ccccc1)C1CCCCC1 (configuration not stated)" measuredtarget="Staphylococcus aureus MW2 delta-mecA (mecA-)" cat="category 2"

Class for Cc1nnc(NS(=O)(=O)c2ccc(N)cc2)s1 ?
category 2

Same lookup for Nc1ccc(C(=O)O)cc1 , please.
category 3

Same lookup for Cc1ncc(CO)c(CO)c1O , please.
category 2

Same lookup for CN(C)CCC(c1ccc(Br)cc1)c1ccccn1 (configuration not stated) , please.
category 1

Same lookup for CC(C)(C)NC(=O)[C@H]1CC[C@H]2[C@@H]3CC[C@H]4NC(=O)C=C[C@]4(C)[C@H]3CC[C@]12C , please.
category 2

Same lookup for O=C1C(CC[S+]([O-])c2ccccc2)C(=O)N(c2ccccc2)N1c1ccccc1 (configuration not stated) , please.
category 3

Same lookup for C[C@]12CCC(=O)C=C1C=C[C@@H]1[C@@H]2CC[C@@]2(C)[C@H]1CC[C@@]21CCC(=O)O1 , please.
category 1

* * *

For each entry below, report its normalized DsRed fluorescence value.
System: Staphylococcus aureus MW2 (mecA+)
Test: normalized DsRed fluorescence (growth of mecA+ strain) (fraction of control range); higher = more growth of mecA+ strain
Details: compound concentration: 150 uM; cefoxitin: subinhibitory; fluorescent label: DsRed

Sample answers from the record:
compound="NS(=O)(=O)c1cc2c(cc1C(F)(F)F)NC(Cc1ccccc1)NS2(=O)=O (stereo not given)" measuredtarget="Staphylococcus aureus MW2 (mecA+)" measured=0.653
compound=CC(=O)OCC(=O)[C@@]12OC3(CCCC3)O[C@@H]1C[C@H]1[C@@H]3CCC4=CC(=O)C=C[C@]4(C)[C@@]3(F)[C@@H](O)C[C@@]12C measuredtarget="Staphylococcus aureus MW2 (mecA+)" measured=0.883

Quick batch: normalized DsRed fluorescence for everything below.
1. CNC[C@H](O)c1ccc(O)c(O)c1
2. O[C@H]1[C@H](O)[C@@H](O)[C@H](O)[C@@H](O)[C@H]1O
3. CN[C@@H]1[C@H](O[C@H]2[C@H](O[C@H]3[C@H](O)[C@@H](O)[C@H](NC(=N)N)[C@@H](O)[C@@H]3NC(=N)N)O[C@@H](C)[C@]2(O)CO)O[C@@H](CO)[C@H](O)[C@H]1O

1: 0.812; 2: 0.698; 3: 0.832
